Value source: PubChem BioAssay (NCI)

Task for the reader: assign each of the following compounds its reported growth.
system: RXF 393 renal; experiment: NCI-60 one-dose screen, 48 h (100 = growth as untreated, 0 = no growth, -100 = all killed); conditions: 10 µM unless noted
About 83,000 compounds went through this panel and 20% of them were active in at least one assay; those are over-represented in the sample as a whole.
Answers are plain numbers, in %.

Here is how some compounds turned out for growth.
- Clc1cccc(Cl)c1CSc1nc2ccccc2n2cccc12: 97.6
- Cc1ccnc(Nc2nc3ccccc3[nH]2)n1: 116

Record growth per entry; entries follow.
1. CC(=O)c1cc(O)ccc1O
2. CCOC(=O)CNC(=O)Sc1ccc(C(C)(C)C)cc1

Result:
1: 88.8; 2: 118

Record growth per entry; entries follow.
1. O=C(N/N=C\c1ccc(Cl)cc1Cl)c1ccncc1
2. CCOC(=O)c1ccc(NC(=O)Nc2nccs2)cc1
3. O=C1NCC2CCCC1C2 (stereo unspecified)
4. Cc1ccccc1NC(=O)Oc1ccc(Cl)cc1C(=O)c1ccccc1
5. OC1Cc2ccccc2C1
6. OCC(O)COc1ccc(Cl)cc1Cl (stereo unspecified)

Result:
1. 118
2. -21.2
3. 103
4. 82
5. 101
6. 115

Record growth per entry; entries follow.
1. S=CN1CCCCC1
2. CCOC(=O)C(COS(C)(=O)=O)(COS(C)(=O)=O)C(=O)OCC
3. Clc1ccc(/C=C/c2ccccn2)cc1
4. CCOC(=O)c1c(C)[nH]c(C)c1C=O
5. CCOC(=N)CC(=O)Nc1cccc(C)c1Cl
6. NCCCN1CCCC1=O
7. NC(=O)N1CCOCC1
8. CC(=O)C1C(=O)C(=O)N(c2cccc([N+](=O)[O-])c2)C1=O (stereo unspecified)

Result:
1. 102
2. 112
3. 116
4. 114
5. 97.5
6. 122
7. 117
8. 110

###

system: NCI-H522 lung; test: NCI-60 one-dose screen, 48 h; conditions: 10 µM unless noted
Compounds without any hit were thinned out: in the full panel of roughly 83,000, 20% have a hit. Active and inactive are the calls of the source. Rule for the calls: active = growth percent below 10; inactive = the rest.
Select the correct class. Options are y for active, n for inactive and nothing else.

Task: Record lookup: outcome of this test for NCC(O)C(O)C(O)C(O)CO (stereo unspecified) ?
Result: n

Task: Record lookup: outcome of this test for "O=C(Nc1ccccc1)c1ccco1" ?
Result: n

Task: Record lookup: outcome of this test for "COc1cc(C(=O)N2CCN(c3ccccc3)CC2)c2ccccc2n1" ?
Result: y

Task: Record lookup: outcome of this test for COc1cc2c(c(OC)c1OC)-c1ccc(SC)c(=O)cc1[C@@H](NC1OC(CO)C(O)C(O)C1O)CC2 (stereo partly specified) ?
Result: y

Task: Record lookup: outcome of this test for C=C1CC2(OC1=O)C(=O)N(C)c1ccc(I)cc12 (stereo unspecified) ?
Result: y

Task: Record lookup: outcome of this test for "COc1cc(C(=O)NC(=S)NCc2ccncc2)cc(OC)c1OC" ?
Result: n

Task: Record lookup: outcome of this test for "CN(C)CCOC(=O)Nc1ccc(Cc2ccc(NC(=O)OCCN(C)C)cc2)cc1" ?
Result: n

Task: Record lookup: outcome of this test for "Cc1ccc(S(N)(=O)=O)cc1Cl" ?
Result: n

###

test system: T-47D breast; assay: NCI-60 one-dose screen, 48 h; settings: 10 µM unless noted
About 83,000 compounds went through this panel and 20% of them were active in at least one assay; those are over-represented in the sample as a whole. Activity calls are given as the source filed them. The calls were made as follows: active = growth percent below 10; inactive = the rest.
Select the correct class. Options are y = active, n = inactive and nothing else.

• CC(=O)N(C)N=Nc1ccc(C)cc1 = n
• O=C1C=Cc2ccccc2/C1=C/c1[nH]c(=O)[nH]c1O = n
• Cc1cc(C(=O)c2ccccc2)cc(C)c1O = n
• CN(C)c1ccc(/C=C/C(=O)c2ccc(NC(N)=O)cc2)cc1 = n
• O=[N+]([O-])c1c(Cl)ncnc1Cl = n

Now let's try a different one.
Task: Record lookup: outcome of this test for "COc1cc(C(=O)O)c(O)c(C(C)(C)C)c1" ?
Result: n
